src = patent US20260028389A1

Measured EC50 by item
- target: T1, recombinant human KLK5 C-6His (Novoprotein, Catalog No. C415) (human, UniProt Q9Y337 23-293)
- T1 construct: Bought protein; also called KLK5 protein (Novoprotein); not shown: C-terminal 6xHis tag ('C-6His')
- measurementDescription: ELISA on captured KLK5 C-6His; binder incubated in human serum, day 0
Write down the numeric answer in nM and omit the unit.

>>> quantitativeresult("Spink9-30.Fc (SEQ ID NO: 55) (Fc fusion, Mutant SPINK9 domain fused directly to a C-terminal IgG Fc) IECAKQTKQMVDCSHYKKLPPEQVSWCTREYDPICGSDGKTYKNDCFFCSKVKKTDGTLKFVHFGKCEPKSCDKTHTCPPCPAPEAAGGPSVFLFPPKPKDTLMISRTPEVTCVVVDVSHEDPEVKFNWYVDGVEVHNAKTKPREEQYNSTYRVVSVLTVLHQDWLNGKEYKCKVSNKALPAPIEKTISKAKGQPREPQVYTLPPSREEMTKNQVSLTCLVKGFYPSDIAVEWESNGQPENNYKTTPPVLDSDGSFFLYSKLTVDKSRWQQGNVFSCSVLHEALHSHYTQKSLSLSPGK")
0.08

Consider the record given below.
In: Look up EC50 for this binder: Spink9-183.Fc (SEQ ID NO: 57) (Fc fusion, Mutant SPINK9 domain fused directly to a C-terminal IgG Fc) IECAKQTKQMVDCSHYKKLPPQQQAYCTRDYDPICGSDGKTYKNDCFFCSKVKKTDGTLKFVHFGKCEPKSCDKTHTCPPCPAPEAAGGPSVFLFPPKPKDTLMISRTPEVTCVVVDVSHEDPEVKFNWYVDGVEVHNAKTKPREEQYNSTYRVVSVLTVLHQDWLNGKEYKCKVSNKALPAPIEKTISKAKGQPREPQVYTLPPSREEMTKNQVSLTCLVKGFYPSDIAVEWESNGQPENNYKTTPPVLDSDGSFFLYSKLTVDKSRWQQGNVFSCSVLHEALHSHYTQKSLSLSPGK
Out: 0.07
